# assayed.system: recombinant human MMP-13 (Homo sapiens, UniProt P45452)
# Construct: made in house
# assay.protocol: In vitro metalloprotease inhibition, fluorogenic peptide assay (MMP-13)
# Format: biochemical
# experimental.parameters: recombinant human MMP-13, APMA activated; fluorogenic MCA peptide substrate 4 uM; pH 7.5, room temperature
pIC50: −log10 of the molar value. Where a name gives a salt, the structure may show the parent alone.
Everything with pIC50 lower than 7 is label 0; everything else, including exactly 7, is label 1.

compound: C[C@H](CS)NS(=O)(=O)c1ccc(Cc2ncc(C(F)(F)F)cc2Cl)s1
assayed.system: recombinant human MMP-13 (Homo sapiens, UniProt P45452)
group: label 0
//
compound: COc1ccc(S(=O)(=O)N(C)[C@H](C)CS)cc1 [Example 11D]
assayed.system: recombinant human MMP-13 (Homo sapiens, UniProt P45452)
group: label 1
//
compound: C[C@H](CS)NS(=O)(=O)c1cn(C)cn1
assayed.system: recombinant human MMP-13 (Homo sapiens, UniProt P45452)
group: label 0
//
compound: CCCCOc1ccc(S(=O)(=O)N(C)[C@H](C)CS)cc1 [Example 22C]
assayed.system: recombinant human MMP-13 (Homo sapiens, UniProt P45452)
group: label 1
//
compound: C[C@H](CS)N(Cc1ccccc1)S(=O)(=O)CCCSc1ccccc1
assayed.system: recombinant human MMP-13 (Homo sapiens, UniProt P45452)
group: label 0
//
compound: C[C@H](CO)N(C)S(=O)(=O)c1ccc(-c2ccccn2)s1 [Example 42D]
assayed.system: recombinant human MMP-13 (Homo sapiens, UniProt P45452)
group: label 0
//
compound: C[C@H](CS)NS(=O)(=O)c1ccc(CNC(=O)c2ccc(Cl)cc2)s1
assayed.system: recombinant human MMP-13 (Homo sapiens, UniProt P45452)
group: label 0
//
compound: CCCCOc1ccc(S(=O)(=O)N[C@@H](CS)C(=O)NC(C)C)cc1
assayed.system: recombinant human MMP-13 (Homo sapiens, UniProt P45452)
group: label 0
//
compound: NC(=O)[C@H](CS)N(CCN1CCOCC1)S(=O)(=O)c1ccc(NC(=O)c2ccccc2)cc1
assayed.system: recombinant human MMP-13 (Homo sapiens, UniProt P45452)
group: label 1
//
compound: C[C@H](CS)NS(=O)(=O)c1ccc(C(F)(F)F)cn1
assayed.system: recombinant human MMP-13 (Homo sapiens, UniProt P45452)
group: label 0
//
compound: CCCCCCCCCCCCCCCCOc1ccc(S(=O)(=O)N[C@H](C)CS)cc1
assayed.system: recombinant human MMP-13 (Homo sapiens, UniProt P45452)
group: label 0
//
compound: C[C@H](CS)NS(=O)(=O)c1ccc(Cl)cc1
assayed.system: recombinant human MMP-13 (Homo sapiens, UniProt P45452)
group: label 0
//
compound: CCCCOc1ccc(S(=O)(=O)N(C)[C@H](C)CSSC[C@@H](C)N(C)S(=O)(=O)c2ccc(OCCCC)cc2)cc1
assayed.system: recombinant human MMP-13 (Homo sapiens, UniProt P45452)
group: label 0
//
compound: C[C@H](CS)N(CCN1CCCCC1)S(=O)(=O)c1ccc(Sc2ccccc2)cc1 [Example 92D, Hydrochloride]
assayed.system: recombinant human MMP-13 (Homo sapiens, UniProt P45452)
group: label 1
//
compound: C[C@H](CS)NS(=O)(=O)c1ccc(C#N)cc1
assayed.system: recombinant human MMP-13 (Homo sapiens, UniProt P45452)
group: label 0
//
compound: C[C@H](CS)NS(=O)(=O)c1ccc([N+](=O)[O-])cc1
assayed.system: recombinant human MMP-13 (Homo sapiens, UniProt P45452)
group: label 0
//
compound: C[C@H](CS)N(Cc1ccccc1)S(=O)(=O)c1ccc2c(c1)OCO2 [Example 21C]
assayed.system: recombinant human MMP-13 (Homo sapiens, UniProt P45452)
group: label 0
//
compound: COc1ccc(S(=O)(=O)N(Cc2ccccc2)C(CSC(C)=O)C(C)C)cc1 (stereo not shown) [Example 33C]
assayed.system: recombinant human MMP-13 (Homo sapiens, UniProt P45452)
group: label 0
//
compound: CCCCOc1ccc(S(=O)(=O)N[C@@H](CS)C(=O)N[C@@H](Cc2ccccc2)C(=O)NC)cc1
assayed.system: recombinant human MMP-13 (Homo sapiens, UniProt P45452)
group: label 0
//
compound: CCCCOc1cc(C(C)(C)CC(C)(C)C)ccc1S(=O)(=O)N[C@H](C)CS
assayed.system: recombinant human MMP-13 (Homo sapiens, UniProt P45452)
group: label 0
//
compound: C[C@H](CS)NS(=O)(=O)c1ccc(S(C)(=O)=O)cc1
assayed.system: recombinant human MMP-13 (Homo sapiens, UniProt P45452)
group: label 0
//
compound: C[C@H](CS)NS(=O)(=O)c1ccc(F)cc1
assayed.system: recombinant human MMP-13 (Homo sapiens, UniProt P45452)
group: label 0
//
compound: CCCCOc1ccc(S(=O)(=O)N(CCN2CCOCC2)[C@H](C)CS)cc1 [Example 45C]
assayed.system: recombinant human MMP-13 (Homo sapiens, UniProt P45452)
group: label 1
//
compound: CCCCCc1ccc(S(=O)(=O)N(CCN2CCOCC2)[C@H](C)CS)cc1
assayed.system: recombinant human MMP-13 (Homo sapiens, UniProt P45452)
group: label 1
